target of assay: SARS-associated coronavirus protease 3CL^pro (Severe acute respiratory syndrome coronavirus)
pKi: −log10 of the molar value.
Measured pKi, listed per entry for reference.

{"columns": ["mol smiles", "pKi"],
 "data": [
  ["O=C(Oc1ccccc1F)c1cc(B(O)O)cc([N+](=O)[O-])c1", 3.75],
  ["O=C(Oc1ccccc1)c1cc(B(O)O)cc([N+](=O)[O-])c1", 4.81],
  ["O=C(Oc1ccncc1)c1cc(B(O)O)cc([N+](=O)[O-])c1", 4.18],
  ["O=C(Nc1cc(B(O)O)cc([N+](=O)[O-])c1)c1c(Cl)cccc1Cl", 4.82]
]}
